Measured EC50 (read off the curve), listed per entry for reference.
Target: T1, human CD22-ECD-His protein (human, UniProt P20273 20-687)
T1 construct: Made in house in HEK293E; also called hCD22-ECD-His; recombinant human CD22-ECD His protein; not shown: His tag
T1 sequence: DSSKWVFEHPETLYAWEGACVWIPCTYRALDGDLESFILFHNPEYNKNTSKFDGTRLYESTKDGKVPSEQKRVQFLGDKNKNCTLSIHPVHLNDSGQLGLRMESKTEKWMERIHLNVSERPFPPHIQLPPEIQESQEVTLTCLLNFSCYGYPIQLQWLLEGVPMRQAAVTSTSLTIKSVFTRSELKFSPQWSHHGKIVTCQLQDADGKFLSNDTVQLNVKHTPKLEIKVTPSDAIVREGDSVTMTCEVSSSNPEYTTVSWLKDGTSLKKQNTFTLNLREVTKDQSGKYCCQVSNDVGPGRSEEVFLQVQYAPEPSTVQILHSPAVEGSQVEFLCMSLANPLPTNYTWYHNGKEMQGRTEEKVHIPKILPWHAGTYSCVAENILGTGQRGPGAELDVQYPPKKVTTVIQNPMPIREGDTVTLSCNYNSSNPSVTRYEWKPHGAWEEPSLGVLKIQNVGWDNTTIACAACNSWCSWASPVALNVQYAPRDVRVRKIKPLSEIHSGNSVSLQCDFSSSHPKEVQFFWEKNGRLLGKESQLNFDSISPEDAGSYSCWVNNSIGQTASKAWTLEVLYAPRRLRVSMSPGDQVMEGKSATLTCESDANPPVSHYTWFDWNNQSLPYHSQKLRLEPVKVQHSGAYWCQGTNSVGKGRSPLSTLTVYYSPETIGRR
Test: ELISA, human CD22-ECD-His coated

[
  {
    "Binder": "F2.127.11 (antibody, human IgG1, lambda, V domains shown, Human-murine chimeric IgG1, lambda) VH: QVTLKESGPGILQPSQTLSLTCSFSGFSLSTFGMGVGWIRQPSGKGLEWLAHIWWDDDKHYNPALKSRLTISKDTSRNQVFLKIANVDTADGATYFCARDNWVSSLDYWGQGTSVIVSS VL: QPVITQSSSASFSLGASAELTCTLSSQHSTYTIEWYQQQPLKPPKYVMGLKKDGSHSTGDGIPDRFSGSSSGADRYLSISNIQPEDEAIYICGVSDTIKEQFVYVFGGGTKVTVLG",
    "EC50 (read off the curve)": "~0.05 nM"
  },
  {
    "Binder": "F1.161.7 (antibody, human IgG1, kappa, V domains shown, Human-murine chimeric IgG1, kappa) VH: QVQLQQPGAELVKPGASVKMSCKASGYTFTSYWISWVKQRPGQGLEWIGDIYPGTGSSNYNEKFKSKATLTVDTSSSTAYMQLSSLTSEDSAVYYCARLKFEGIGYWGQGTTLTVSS VL: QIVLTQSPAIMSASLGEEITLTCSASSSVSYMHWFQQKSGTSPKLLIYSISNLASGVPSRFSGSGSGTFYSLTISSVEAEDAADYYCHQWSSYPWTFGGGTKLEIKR",
    "EC50 (read off the curve)": "~0.02 nM"
  },
  {
    "Binder": "F1.60.9 (antibody, human IgG1, kappa, V domains shown, Human-murine chimeric IgG1, kappa) VH: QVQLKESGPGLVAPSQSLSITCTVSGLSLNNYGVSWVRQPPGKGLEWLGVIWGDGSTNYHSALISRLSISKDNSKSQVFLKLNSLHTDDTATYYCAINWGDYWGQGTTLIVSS VL: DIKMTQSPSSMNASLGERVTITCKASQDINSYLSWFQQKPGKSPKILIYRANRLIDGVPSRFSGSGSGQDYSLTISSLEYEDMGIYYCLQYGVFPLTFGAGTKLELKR",
    "EC50 (read off the curve)": "~0.05 nM"
  }
]
